# Tested on: Mus musculus
# Protocol Notes: Drug level in nude mouse plasma at 100 mg/kg, po
# Format: ADME, organism-based
# Parameters: dose 100 mg/kg, route oral
# Settings: in vivo
Value Kind: concentration (µM)
Please reply with the bare figure in µM and do not write the unit itself.

Write down concentration measured for item CC(C)(N)c1ccc(-c2nc(Nc3ccc(CCN4CCOCC4)cc3)ncc2C#N)cc1
12

----------
# Protocol Notes: Oral bioavailability in nude mouse at 3 mg/kg
# Type: ADME, organism-based
# Settings: in vivo
Value Kind: bioavailability (%)
Report as a plain number; the unit % is understood.

Name the recorded bioavailability of the compound listed here: CC(C)(N)c1ccc(-c2nc(Nc3ccc(CCN4CCOCC4)cc3)ncc2C#N)cc1
44

----------
# Protocol Notes: Area under curve in nude mouse at 3 mg/kg
# Type: ADME, organism-based
# Design: dose 3 mg/kg
# Settings: in vivo
Value Kind: AUC (µM·h)
Please give a number only; it is taken to be in µM·h.

Return value of AUC for input CC(C)(N)c1ccc(-c2nc(Nc3ccc(CCN4CCOCC4)cc3)ncc2C#N)cc1 , no commentary.
15.6

----------
As an illustration, consider measured IC50 for compounds on Vascular endothelial growth factor receptor 2 (Homo sapiens, UniProt P35968).
Sequence (P35968 whole entry): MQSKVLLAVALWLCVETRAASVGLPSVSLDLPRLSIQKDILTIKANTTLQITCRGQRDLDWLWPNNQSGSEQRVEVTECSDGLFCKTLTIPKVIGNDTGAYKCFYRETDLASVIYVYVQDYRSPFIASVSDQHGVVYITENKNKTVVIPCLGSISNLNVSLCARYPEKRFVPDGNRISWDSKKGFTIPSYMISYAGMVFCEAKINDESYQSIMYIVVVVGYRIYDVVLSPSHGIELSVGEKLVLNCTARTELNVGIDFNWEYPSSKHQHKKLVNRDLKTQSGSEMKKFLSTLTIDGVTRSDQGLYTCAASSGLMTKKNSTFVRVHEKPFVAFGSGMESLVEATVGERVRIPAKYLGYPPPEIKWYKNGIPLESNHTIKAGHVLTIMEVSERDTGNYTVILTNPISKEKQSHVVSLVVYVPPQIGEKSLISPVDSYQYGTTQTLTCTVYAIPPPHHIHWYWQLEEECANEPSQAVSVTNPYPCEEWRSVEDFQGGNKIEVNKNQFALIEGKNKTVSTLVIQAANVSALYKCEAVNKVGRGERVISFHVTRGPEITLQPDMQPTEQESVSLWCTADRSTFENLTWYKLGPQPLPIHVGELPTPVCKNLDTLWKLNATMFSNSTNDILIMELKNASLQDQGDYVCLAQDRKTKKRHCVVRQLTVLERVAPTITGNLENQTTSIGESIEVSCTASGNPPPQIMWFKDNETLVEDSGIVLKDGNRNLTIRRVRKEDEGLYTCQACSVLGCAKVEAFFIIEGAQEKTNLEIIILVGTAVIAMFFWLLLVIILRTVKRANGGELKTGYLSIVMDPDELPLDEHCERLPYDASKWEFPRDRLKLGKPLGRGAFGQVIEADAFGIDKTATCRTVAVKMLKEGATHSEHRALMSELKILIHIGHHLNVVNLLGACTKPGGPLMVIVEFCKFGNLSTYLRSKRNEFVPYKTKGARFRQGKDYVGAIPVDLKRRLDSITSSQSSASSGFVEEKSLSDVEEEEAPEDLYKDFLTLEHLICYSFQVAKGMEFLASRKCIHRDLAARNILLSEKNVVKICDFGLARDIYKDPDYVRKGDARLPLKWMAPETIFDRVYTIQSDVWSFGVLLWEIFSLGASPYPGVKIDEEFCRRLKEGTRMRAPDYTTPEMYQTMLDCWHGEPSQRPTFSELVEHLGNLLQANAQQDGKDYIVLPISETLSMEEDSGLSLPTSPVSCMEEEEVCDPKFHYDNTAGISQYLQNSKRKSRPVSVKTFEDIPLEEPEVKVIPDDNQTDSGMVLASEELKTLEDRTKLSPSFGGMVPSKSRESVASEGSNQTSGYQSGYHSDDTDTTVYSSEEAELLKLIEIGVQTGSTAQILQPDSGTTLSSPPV
Expressed in nM, but write only the number.

1) CN1CCN(CCc2ccc(Nc3ncc(C#N)c(-c4ccc(C(C)(C)N)cc4)n3)cc2)CC1
21
2) CC(C)(N)c1ccc(-c2nc(Nc3cccc(CCN4CCOCC4)c3)ncc2C#N)cc1
55
3) N#Cc1cnc(Nc2ccc(CCO)cc2)nc1-c1cc2ccccc2[nH]1
1400

# context switch: different compound, same IC50
Would you please give the reported IC50 of COc1cc(Nc2ncc(C#N)c(-c3ccccc3)n2)ccc1CN1CCCC1 with Vascular endothelial growth factor receptor 2 (Homo sapiens, UniProt P35968)?
91

----------
# Experimental System: Vascular endothelial growth factor receptor 2 (Homo sapiens)
pIC50: −log10 of the molar value.
Would you mind labelling by pIC50? At or over 6 is y, under is n.

Look over these answered cases.
1. N#Cc1cnc(Nc2ncccn2)nc1-c1ccccc1
n
2. N#Cc1cnc(Nc2nc3ccccc3[nH]2)nc1-c1ccccc1
n
3. N#Cc1cnc(Nc2ccc(CCN3CCCC3)cc2)nc1-c1ccccc1
y
4. COc1cccc(Nc2ncc(C#N)c(-c3ccccc3)n2)c1
y
5. N#Cc1cnc(Nc2ccc3ccccc3c2)nc1-c1ccccc1
n
6. N#Cc1cnc(Nc2ccc(CCO)cc2)nc1-c1ccc2[nH]ccc2c1
y
7. CC(C)(O)c1ccc(-c2nc(Nc3ccc(CCO)cc3)ncc2C#N)cc1
y
8. N#Cc1cnc(Nc2ccc(CCO)cc2)nc1-c1ccc(S(N)(=O)=O)cc1
y
9. N#Cc1cnc(Nc2ccc(Cl)cc2)nc1-c1ccccc1
n

Below: the item to evaluate.
Quick check: does N#Cc1cnc(Nc2ccc(CCO)cc2)nc1-c1cccs1 have pIC50 greater than or equal to 6?
y

----------
Attribute: IC50
# Experimental System: Cyclin-dependent kinase 1 (Homo sapiens)
# Sequence (P06493 whole entry): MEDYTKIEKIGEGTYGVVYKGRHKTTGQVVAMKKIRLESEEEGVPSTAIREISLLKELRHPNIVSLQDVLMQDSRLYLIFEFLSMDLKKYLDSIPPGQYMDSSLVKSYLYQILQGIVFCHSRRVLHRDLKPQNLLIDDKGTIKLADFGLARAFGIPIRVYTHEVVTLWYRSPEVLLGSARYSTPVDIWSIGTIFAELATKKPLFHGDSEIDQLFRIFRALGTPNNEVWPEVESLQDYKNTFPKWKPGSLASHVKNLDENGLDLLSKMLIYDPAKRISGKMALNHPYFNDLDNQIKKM
Numbers only here, please. The scale is nM.

The following compounds have reported results that may help.
1. N#Cc1cnc(Nc2ccc(CCO)cc2)nc1-c1ccc(Br)cc1
2000
2. COc1ccc(Nc2ncc(C#N)c(-c3ccccc3)n2)cc1
3300
3. N#Cc1cnc(Nc2ccc(CCO)cc2)nc1-c1cc2ccccc2[nH]1
1700
4. Cc1ccc(Nc2ncc(C#N)c(-c3ccccc3)n2)cc1
3500
5. CCc1nccn1CCc1ccc(Nc2ncc(C#N)c(-c3ccc(C(C)(C)N)cc3)n2)cc1
4800

Write IC50 of COc1ccc(-c2nc(Nc3ccc(CCO)cc3)ncc2C#N)cc1 ; system used: Cyclin-dependent kinase 1 (Homo sapiens)
1500

Using Cyclin-dependent kinase 1 (Homo sapiens) as the test system, report measured IC50 of CC(C)(C)c1nc(Nc2ccc(CCO)cc2)ncc1C#N .
1100

State, for Cyclin-dependent kinase 1 (Homo sapiens), measured IC50 of the compound listed here: N#Cc1cnc(Nc2ccc(CCO)cc2)nc1-c1ccc2[nH]ccc2c1
410
